System: OVCAR-3 ovarian
Test: NCI-60 one-dose screen, 48 h (100 = growth as untreated, 0 = no growth, -100 = all killed)
Conditions: 10 µM unless noted
About 83,000 compounds went through this panel and 20% of them were active in at least one assay; those are over-represented in the sample as a whole.
The label Met is reserved for growth strictly under 30%; Not met covers values equal to or above it.

Request: Bench note: check whether "C[C@@H](Oc1cc(-c2cnn(C3CCNCC3)c2)cnc1N)c1c(Cl)ccc(F)c1Cl" shows growth below 30%
Result: Met

Request: I wonder whether Nc1c2c(c(O)c3c1=C(CO)C=N3)=NCCS2=O (configuration not stated) has growth below 30%. Can you tell?
Result: Met

Request: Hello, is growth of the following compound strictly smaller than 30%? "CO[C@H]1C[C@@H]2CC[C@@H](C)[C@@](O)(O2)C(=O)C(=O)N2CCCC[C@H]2C(=O)O[C@H]([C@H](C)C[C@@H]2CC[C@@H](OP(C)(C)=O)[C@H](OC)C2)CC(=O)[C@H](C)/C=C(\C)[C@@H](O)[C@@H](OC)C(=O)[C@H](C)C[C@H](C)\C=C/C=C/C=C/1C"
Result: Not met

Request: Item "Cc1cc(N(CCNc2ccnc3cc(Cl)ccc23)Cc2ccc3c(c2)OCO3)nc(N2CCN(C)CC2)n1" : growth beneath 30%, strictly?
Result: Met

Request: Here's an entry: "C=CC(=O)Nc1cc2c(Nc3ccc(F)c(Cl)c3)ncnc2cc1C#CC(C)(C)N1CCN(C)CC1" . Is its growth below 30%?
Result: Met

Request: growth strictly < 30% for this compound? "NC1=Nc2cc(OCCCN3Cc4ccccc4C3)c(OCC3CC3)cc2C12CCCC2"
Result: Not met

Request: Please indicate whether the reported growth of "COc1cc(NCCCN)c2ncccc2c1" is strictly below 30%.
Result: Not met

----------
Test system: A498 renal
Assay: NCI-60 one-dose screen, 48 h (100 = growth as untreated, 0 = no growth, -100 = all killed)
Details: 10 µM unless noted
Compounds without any hit were thinned out: in the full panel of roughly 83,000, 20% have a hit.
Quick rule: growth of at least 50% means fulfilled, below that means not fulfilled.

Request: Please tell me: is the compound "Cc1cccc(Cl)c1NC(=O)c1cnc(Nc2cc(N3CCOCC3)cc(S(C)(=O)=O)c2)s1" at or over 50% in terms of growth?
Result: not fulfilled

Request: API: above_or_equal(metric=growth, cutoff=50%) for item "CC(=O)OCCC/C(=C\c1ccc2ccccc2c1)[N+](=O)[O-]"
Result: not fulfilled

Request: // inclusive: growth at least 50%? input: "CNC(=O)c1cccc2cc(Oc3ccnc4cc(OCC5(N)CC5)c(OC)cc34)ccc12"
Result: fulfilled

Request: In plain terms: is recorded growth at least 50% for "COCCN1CCN(Cc2ccc(-c3n[nH]c4c3C(=O)c3c(NC(=O)NN5CCOCC5)cccc3-4)cc2)CC1" ?
Result: not fulfilled

Request: Reported growth at or above 50%? "CCc1cnn2c(NCc3ccc[n+]([O-])c3)cc(N3CCCC[C@H]3CCO)nc12"
Result: not fulfilled

Request: Given the entry O=C1CSC(c2c(F)cccc2Cl)N1NC(=O)C(O)(c1ccccc1)c1ccccc1 (configuration not stated) , answer whether its growth meets or surpasses 50%.
Result: fulfilled

Request: Record "CCN(CC)CCNc1ccc(N=Nc2cnc3ccccc3c2)c2ccccc12" ; criterion: growth no lower than 50%. Met?
Result: not fulfilled

Request: Please indicate if the recorded growth for "N#Cc1c(C(F)(F)F)cc(Nc2ccc3nc(NCCN4CCCC4)oc3c2)n2c1nc1ccccc12" meets or exceeds 50%.
Result: fulfilled

Request: Does the reported growth for "CO[C@H]1C[C@@H]2CC[C@@H](C)[C@@](O)(O2)C(=O)C(=O)N2CCCC[C@H]2C(=O)O[C@H]([C@H](C)C[C@@H]2CC[C@@H](O)[C@H](OC)C2)CC(=O)[C@H](C)/C=C(\C)[C@@H](O)[C@@H](OC)C(=O)[C@H](C)C[C@H](C)\C=C/C=C/C=C/1C" fall at or above the 50% mark?
Result: not fulfilled

Request: Would you say "CCN1/C(=C/C=C/c2n(-c3ccccc3)c3ccc(-c4nc5ccccc5s4)cc3[n+]2CC)N(c2ccccc2)c2ccc(-c3nc4ccccc4s3)cc21" shows growth at minimum 50%?
Result: not fulfilled

Request: Determine whether measured growth meets or exceeds 50% for COc1cc(C2CC(c3ccc(Cl)cc3)=NN2c2ccc(Cl)cc2)cc(OC)c1OC (configuration not stated)
Result: fulfilled

Request: Determine whether measured growth meets or exceeds 50% for "CCS(=O)(=O)N1CCN(c2ccc(Nc3ncc(C(N)=O)c(NC4CC4)n3)cc2)CC1"
Result: fulfilled

----------
Tested on: NCI-H322M lung
Experiment: NCI-60 one-dose screen, 48 h (100 = growth as untreated, 0 = no growth, -100 = all killed)
Settings: 10 µM unless noted
Method: Growth inhibition of the NCI-H322M human Non-Small Cell Lung tumor cell line is measured as a screen for anti-cancer activity. Cells are grown in 96 well plates and exposed to the test compound for 48 hours. Compounds are tested at a single concentration, which is 10^-5 M for most compounds. The reported endpoint is percent growth (GI% or GIPRCNT), where numbers from 0 - 100% represent growth inhibition, and numbers from -100% - 0 represent cell death. […]
This is part of a sample that, as a whole, favours compounds with a hit. Of some 83,000 tested, about 20% had one in any assay.
Would you mind telling me the reported growth of each entry?
Value expressed in %; do not type the unit.

Request: Could you tell me which growth is on file for "C[C@H]1Oc2cc(cnc2N)-c2c(nn(C)c2C#N)CN(C)C(=O)c2ccc(F)cc21" ?
Result: 104

Request: Name the reported growth value associated with the compound "Cc1cc(C(=O)Nc2cc(Oc3ccc4nc(NC(=O)C5CC5)cn4n3)ccc2C)n(C)n1"
Result: 15.8

Request: Give the measured growth of "CC(=O)c1c(C)c2cnc(Nc3ccc(N4CCNCC4)cn3)nc2n(C2CCCC2)c1=O" .
Result: 31.9

Request: Please look up its growth: "CCN1CCN(c2nc(C)cc(N(CCNc3ccnc4cc(Cl)ccc34)Cc3ccc4c(c3)OCO4)n2)CC1"
Result: 36.3

----------
Tested on: A498 renal
Test: NCI-60 one-dose screen, 48 h (100 = growth as untreated, 0 = no growth, -100 = all killed)
Conditions: 10 µM unless noted
This is part of a sample that, as a whole, favours compounds with a hit. Of some 83,000 tested, about 20% had one in any assay.
Response field class: enum, chosen by comparing growth against low end = under 20%, middle = from 20% up to 70%, high end = 70% and over

Request: For "CCN1CCN(c2cc(C)nc(N(CCCNc3ccnc4cc(Cl)ccc34)Cc3ccc4c(c3)OCO4)n2)CC1" , which growth bin applies?
Result: middle

Request: Into which category would you place "CCOc1ccc(N=C(C)Nc2ccc(OCC)cc2)cc1" ?
Result: high end

Request: Could you tell me which band "CN1CC[C@@H](c2c(O)cc(O)c3c(=O)cc(-c4ccccc4Cl)oc23)[C@@H]1CO" belongs to?
Result: low end

Request: Which of the defined bands does the recorded growth of "COc1cc2c(Oc3ccc4[nH]c(C)cc4c3F)ncnc2cc1OCCCN1CCCC1" sit within?
Result: low end

Request: Please indicate the class for "O=C(Cc1ccc(/C=C/C(=O)c2ncc[nH]2)cc1)Nc1ccc(Br)cc1" based on its growth.
Result: high end

Request: Would you mind sorting "O=C(Cn1ccc2ccccc21)Nc1ccc(-c2nc3ccccc3s2)cc1" into the appropriate category?
Result: high end

Request: Any idea which band "COc1cc2ncnc3c2cc1OCCCCCN(C)Cc1ccc(Br)cc1N3" is in?
Result: middle

Request: Which category fits this record: "CCN(CC)Cc1cc(Nc2cc(C(F)(F)F)c(C#N)c3nc4ccccc4n23)ccc1O"
Result: low end

Request: Form: Item = "O=C(Cc1ccccc1)Nc1nnc(NC2CCN(c3nnc(NC(=O)Cc4ccccc4)s3)CC2)s1" ; Class = ?
Result: middle

Request: Note: place this compound into its band. Item: "CCCNC(=O)c1cn2ncnc(Nc3cc(C(=O)NC4CC4)ccc3C)c2c1C"
Result: middle

Request: Would you mind sorting COc1cc(NC2CCC(=O)N2c2ccc(Cl)cc2Cl)cc(OC)c1OC (centres undefined) into the appropriate category?
Result: high end

Request: Consider "COc1cc2c(cc1OCCCN1Cc3ccc(OCCCCC(=O)N4CCC(CCN5CCCC5)CC4)cc3C1)N=C(N)C21CCCC1" . To which growth class does it belong?
Result: high end

Request: Band for "Cn1ncc(Cl)c1-c1cc(C(=O)N[C@H](CN)Cc2cccc(F)c2)sc1Cl" ?
Result: low end

----------
Test system: UACC-62 melanoma
Experiment: NCI-60 one-dose screen, 48 h (100 = growth as untreated, 0 = no growth, -100 = all killed)
Conditions: 10 µM unless noted
About 83,000 compounds went through this panel and 20% of them were active in at least one assay; those are over-represented in the sample as a whole. Calls of active or inactive are those of the source. How the source made its calls: active means growth percent below 10; inactive means the rest.
So I've got a bunch of molecules here, and I need their growth values.

Request: Quick check: growth of "CC(C)Nc1cc(-c2c[nH]c(C(=O)N[C@H](CO)c3cccc(Cl)c3)c2)c(Cl)cn1" ?
Result: 11.7% (inactive)

Request: Entry under review: "COc1cnc2c(c1)C(=O)c1c-2n(CCCN2CCOCC2)c(=O)c2cc(Cl)ccc12" . Reported growth?
Result: 4.37% (active)

Request: Could you share which growth value was measured for "CCN1CCN(Cc2ccc(Cc3ncc(F)c(-c4cc(F)c5nc(C)n(C(C)C)c5c4)n3)nc2)CC1" ?
Result: 69.1% (inactive)

Request: # lookup: growth of "FC(F)c1nc2ccccc2n1-c1nc(N2CCOCC2)nc(N2CCOCC2)n1"
Result: -50% (active)

Request: Give its growth value. Item: "CC(=O)Oc1ccccc1C(=O)N=C1[Se]CCN1C(=O)c1ccccc1OC(C)=O"
Result: -57.8% (active)

Request: State the recorded growth for this entry: "C=CC(=O)Nc1cc2c(Nc3ccc(F)c(Cl)c3)ncnc2cc1OCCCN1CCOCC1"
Result: -49.7% (active)

Request: Query (molecule): "O=C(CNc1nc2ccccc2s1)Nc1ccc(-c2nc3ccccc3s2)cc1" ; field requested: growth
Result: 94.6% (inactive)

Request: Quick one: growth of "Nc1c(C(=O)c2ccccc2)sc2nc(-c3cccs3)cc(-c3cccs3)c12" ?
Result: 28.7% (inactive)
